# TEST SYSTEM: Focal adhesion kinase 1 (Homo sapiens) (UniProt Q05397)
# Sequence (Q05397 whole entry, looked up): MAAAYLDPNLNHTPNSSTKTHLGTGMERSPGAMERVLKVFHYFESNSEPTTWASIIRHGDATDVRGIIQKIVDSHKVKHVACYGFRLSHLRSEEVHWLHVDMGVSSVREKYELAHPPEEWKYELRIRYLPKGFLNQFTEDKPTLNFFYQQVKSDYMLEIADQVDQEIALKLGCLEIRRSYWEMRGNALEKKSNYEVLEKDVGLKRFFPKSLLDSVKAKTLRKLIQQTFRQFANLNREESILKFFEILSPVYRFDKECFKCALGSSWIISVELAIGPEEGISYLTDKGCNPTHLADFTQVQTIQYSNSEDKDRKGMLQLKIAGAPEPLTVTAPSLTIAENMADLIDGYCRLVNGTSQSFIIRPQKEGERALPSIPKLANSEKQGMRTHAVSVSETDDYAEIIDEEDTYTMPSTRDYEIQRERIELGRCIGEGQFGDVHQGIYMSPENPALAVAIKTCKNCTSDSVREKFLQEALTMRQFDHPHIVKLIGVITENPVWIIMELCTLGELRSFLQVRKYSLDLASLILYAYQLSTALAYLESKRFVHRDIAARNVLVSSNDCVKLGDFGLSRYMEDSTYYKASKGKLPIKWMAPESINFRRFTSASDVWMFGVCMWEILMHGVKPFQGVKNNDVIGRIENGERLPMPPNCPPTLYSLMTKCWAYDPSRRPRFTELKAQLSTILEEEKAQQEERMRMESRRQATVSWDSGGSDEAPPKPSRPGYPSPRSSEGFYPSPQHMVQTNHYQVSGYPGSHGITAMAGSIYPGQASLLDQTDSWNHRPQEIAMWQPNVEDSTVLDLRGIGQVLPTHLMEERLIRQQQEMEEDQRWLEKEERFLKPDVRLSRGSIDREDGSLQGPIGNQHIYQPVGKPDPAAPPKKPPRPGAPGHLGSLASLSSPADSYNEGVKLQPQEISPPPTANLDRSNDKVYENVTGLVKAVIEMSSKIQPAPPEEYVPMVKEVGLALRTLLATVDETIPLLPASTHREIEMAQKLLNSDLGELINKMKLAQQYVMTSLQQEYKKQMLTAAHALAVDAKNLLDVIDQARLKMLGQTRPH
# TEST: PTK2 protein binding on printed compound slides – biochemical, small-molecule microarray, 635/667 nm fluorescence, BSA, DTT, primary screen (AID 1130);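 note: composite of spot emission at 667 nm and signal to noise over triplicate slides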
# CONDITION CONTEXT: 635 nm fluorescence, higher = more signal
Would you please tag the item TRUE when its composite z-score is 0.3 or above, and FALSE when it is below?

Answered examples (3):
1. C=C(COC)/C(=C/C[C@H](OC(=O)c1ccncc1)c1ccccc1OCCO)c1cc(C(=O)OC)ccc1OC    TRUE
2. CCCNC(=O)[C@@]1(Sc2ccc(C)cc2)CC(=O)N(C2Cc3ccccc3C2)[C@@H]1c1ccc(CO)cc1I    TRUE
3. CCCC=C(CCC)[C@@H](NS(=O)(=O)c1ccc(C(F)(F)F)cc1)c1ccccc1    TRUE

Check this compound for composite z-score at or above 0.3: `COc1ccc([C@H]2OC[C@@H]3C[C@H](Cc4ccccc4)C(=O)N32)cc1`
FALSE

For this compound, is measured composite z-score 0.3 or higher? [N-]=[N+]=NCc1ccccc1[C@H]1OC(c2ccc(OCCCO)cc2)=N[C@@]1(Cc1ccccc1N=[N+]=[N-])C(=O)NCC(O)CO (stereo partly drawn)
TRUE

Confirm if composite z-score reported for the compound `CCOC(=O)C=Cc1cccc(C)c1O` is 0.3 or above.
TRUE

Please indicate if the recorded composite z-score for `COc1ccc(C#Cc2ccc3c(c2)[C@]2(C(=O)N3)[C@H](c3ccc(OCCO)cc3)N3[C@H](c4ccccc4)[C@H](c4ccccc4)OC(=O)[C@H]3[C@@H]2C(=O)NC[C@H](O)c2ccccc2)cc1` meets or exceeds 0.3.
FALSE

Tell me whether composite z-score is at least 0.3 here: CC(=O)N1CC2(CC2)CC1c1ccccc1 (stereo not drawn)
FALSE
